Entry source: PubChem BioAssay AID179

- Test system: CEM cells HIV-1 protection, formazan growth assay
- assay_info: NCI AIDS Antiviral Assay
pEC50: −log10 of the molar value.
Below, each of the compounds is paired with its reported pEC50 value.

Worked set:
{"compound": "Clc1nc(Cl)nc(Nc2ncccn2)n1", "pEC50": "< 3.70"}
{"compound": "Cc1cc(N(CCC#N)CCC#N)ccc1N=Nc1ccc(C(=O)O)cc1", "pEC50": "< 4.00"}
{"compound": "C=CCN1CN(c2ccccc2)C2(CCN(CCCC3(c4ccc(F)cc4)OCCO3)CC2)C1=O", "pEC50": "< 3.70"}
{"compound": "CO[C@H]1SC[C@H](OC(C)=O)[C@H](OC(C)=O)[C@H]1OC(C)=O", "pEC50": "< 3.70"}
{"compound": "Cn1nc2c(c(Cl)c1=O)Nc1ccccc1O2", "pEC50": "< 3.70"}

Query: Give its pEC50 value. Item: CC(C(=O)O)N(N=O)c1ccccc1 (stereo unspecified)
Response: < 3.17

---

- System: CEM cells HIV-1 protection, formazan growth assay
- assay_info: NCI AIDS Antiviral Assay
- measurement_setup: measured here: growth of uninfected CEM cells
Below, each of the molecules is paired with its reported IC50 value.
API: value field is a number in µM; no unit string.

{"molecule": "Cc1cc2c(C(C)C)c(O)c(O)c(C=O)c2c(O)c1-c1c(C)cc2c(C(C)C)c(O)c(O)c(C=Nc3ccccc3SSc3ccccc3N)c2c1O", "units_label": "µM", "IC50": 24.5}
{"molecule": "CCCCCCCCOCC(O)COC(=O)CCCCCCC (stereo unspecified)", "units_label": "µM", "IC50": 20.9}

Query: Give its IC50 value. Item: Cc1sc2nc(N(C)C)oc(=O)c2c1C
Response: 75.9

Query: Give its IC50 value. Item: COc1ccc(N(C)S(=O)(=O)c2ccccc2)cc1
Response: 123

---

- Test system: CEM cells HIV-1 protection, formazan growth assay
- assay_info: NCI AIDS Antiviral Assay
- measurement_setup: measured here: growth of uninfected CEM cells
Below, each of the compounds is paired with its reported IC50 value.
API: value field is a number in µM; no unit string.

{"compound": "CCOC(=O)C1([Se]c2ccccc2)CCCC1=O (stereo unspecified)", "IC50 / µM": 20.4}
{"compound": "C=CC1=CC(C)C[C@]1(O)C(=O)OC (stereo partly specified)", "IC50 / µM": 708}

Continue with the compound presented below.
Query: Form field: IC50 recorded for O=c1oc2c3ccc4ccccc4c3n(CCN3CCCCC3)c2c2ccccc12 with CEM cells HIV-1 protection, formazan growth assay (enter value)
Response: 6.76

---

Below, each of the molecules is paired with its reported pEC50 value.
- System: CEM cells HIV-1 protection, formazan growth assay
- assay_info: NCI AIDS Antiviral Assay
pEC50: −log10 of the molar value.

Worked set:
{"molecule": "C/C(Cc1[nH]nc2c1c(=O)oc1ccc3ccccc3c12)=N\\N", "value_reported": "< 3.70"}
{"molecule": "CCOC(=O)NC(NC(C)CC)(C(F)(F)F)C(F)(F)F (stereo unspecified)", "value_reported": "< 3.70"}

Query: Give its pEC50 value. Item: O=C(O)c1ccccc1SCc1cccc2c(=O)c3ccc(Cl)cc3oc12
Response: 4.99

Query: Give its pEC50 value. Item: NC(Cc1ccc(B(O)O)cc1)C(=O)NC(CO)CO (stereo unspecified)
Response: < 3.70

Query: Give its pEC50 value. Item: COC(=O)C1=C(C)N2CCCOC2(C)C(C(=O)OC)C1c1cccc(Cl)c1 (stereo unspecified)
Response: < 3.70

Query: Give its pEC50 value. Item: CCN(CC)CCCCC1CCN(CC(=O)N2c3ccccc3NC(=O)CC2C)CC1 (stereo unspecified)
Response: < 3.60

Query: Give its pEC50 value. Item: CN(C)c1cc(CNCCc2cnc[nH]2)nc(CNCCc2cnc[nH]2)c1
Response: < 3.70

Query: Give its pEC50 value. Item: CC1(Br)C(=O)NC(=O)N([C@H]2C[C@H](O)[C@@H](CO)O2)C1N=[N+]=[N-] (stereo partly specified)
Response: 3.84
